Assay: clinical
Conditions: human, in vivo, po, 801 mg, Cmax, Median

{"smiles code": "Cc1ccc(=O)n(-c2ccccc2)c1", "Cmax": "10.4 µg/mL"}

* * *

Experiment: clinical
Settings: human, in vivo, po, 801 mg, Cmax, Mean (SD)

{"smiles code": "Cc1ccc(=O)n(-c2ccccc2)c1", "Cmax": "10.4 µg/mL"}

* * *

Assay: clinical
Settings: human, in vivo, po, 801 mg, Tmax, Mean (SD)
parameter: Tmax

{"compound": "Cc1ccc(=O)n(-c2ccccc2)c1 [Pirfenidone, 5-methyl-1-phenyl-2-(1H)-pyridone]", "reading": "2.2 h"}

* * *

Assay: clinical
Details: human, in vivo, po, 801 mg, T1/2, Mean (SD)

{"molecule": "Cc1ccc(=O)n(-c2ccccc2)c1 [Pirfenidone, 5-methyl-1-phenyl-2-(1H)-pyridone]", "half-life (h)": 2.5}

* * *

Assay: clinical
Settings: human, in vivo, po, T1/2, Median
parameter: half-life (h)

{"smiles code": "Cc1ccc(=O)n(-c2ccccc2)c1", "reading": 4}

* * *

Test: clinical
Settings: human, in vivo, po, 801 mg, T1/2 (apparent terminal elimination half-life), Geometric Mean

{"smiles code": "Cc1ccc(=O)n(-c2ccccc2)c1", "half-life": "2.4 h"}

* * *

Assay: clinical
Settings: human, in vivo, po, Tmax, Median
parameter: Tmax (h)

{"smiles code": "Cc1ccc(=O)n(-c2ccccc2)c1", "parameter": "Tmax", "reading": 2}

* * *

Assay: clinical
Conditions: human, in vivo, po, Tmax, Mean (SD)
parameter: Tmax (h)

{"smiles code": "Cc1ccc(=O)n(-c2ccccc2)c1", "units": "h", "reading": 2.6}
